Where do these numbers come from? They come from PubChem BioAssay (NCI).

assay: NCI Yeast Anticancer Drug Screen. Data for the sgs1 mgt1 strain (AID 161);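 also: 0% = growth of cultures given vehicle only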; details: S. cerevisiae sgs1 mgt1 strain, at 50.0 µM, active compounds read high
Compounds without any hit were thinned out: in the full panel of roughly 79,000, 15% have a hit.
Please respond with reported growth inhibition for every item in the list.
Numbers only, in %.

# annotated cases, reported growth inhibition shown
CC(C)CC(C)N=C1CC2CCC1(C)C2(C)C (configuration not stated)
-3.35
CCOC(=O)C(=CC(C)(C)C)C(=O)OCC
2.8
ON(Cc1ccccc1)Cc1ccccc1
12.9

Please give growth inhibition, item by item, for the list that follows.
1. COC(=O)CC1(C(=O)OC)Oc2ccc(Br)cc2C(=O)N1c1cccc(Cl)c1Cl (configuration not stated)
2. Nc1ccnc(Sc2ncccc2[N+](=O)[O-])n1

1. 46.5
2. -5.75
